For each record, write down the corresponding IC50.
target: rα3β2 nAChR (Rattus norvegicus, UniProt P04757+P12390); experiment: cell-based
Sequence (P04757 26-499): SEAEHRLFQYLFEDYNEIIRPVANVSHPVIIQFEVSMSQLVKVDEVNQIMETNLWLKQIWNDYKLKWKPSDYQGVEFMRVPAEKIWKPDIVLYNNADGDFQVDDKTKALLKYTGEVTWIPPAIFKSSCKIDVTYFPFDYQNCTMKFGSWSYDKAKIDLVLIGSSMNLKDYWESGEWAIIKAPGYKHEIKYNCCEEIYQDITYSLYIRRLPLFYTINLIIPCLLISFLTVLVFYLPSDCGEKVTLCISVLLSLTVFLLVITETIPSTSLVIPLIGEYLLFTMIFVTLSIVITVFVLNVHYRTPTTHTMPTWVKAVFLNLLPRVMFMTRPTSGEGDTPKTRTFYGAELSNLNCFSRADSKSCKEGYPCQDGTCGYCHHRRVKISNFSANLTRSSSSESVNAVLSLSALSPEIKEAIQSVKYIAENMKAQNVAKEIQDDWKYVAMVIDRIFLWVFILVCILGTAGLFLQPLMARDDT
Sequence (P12390 25-500): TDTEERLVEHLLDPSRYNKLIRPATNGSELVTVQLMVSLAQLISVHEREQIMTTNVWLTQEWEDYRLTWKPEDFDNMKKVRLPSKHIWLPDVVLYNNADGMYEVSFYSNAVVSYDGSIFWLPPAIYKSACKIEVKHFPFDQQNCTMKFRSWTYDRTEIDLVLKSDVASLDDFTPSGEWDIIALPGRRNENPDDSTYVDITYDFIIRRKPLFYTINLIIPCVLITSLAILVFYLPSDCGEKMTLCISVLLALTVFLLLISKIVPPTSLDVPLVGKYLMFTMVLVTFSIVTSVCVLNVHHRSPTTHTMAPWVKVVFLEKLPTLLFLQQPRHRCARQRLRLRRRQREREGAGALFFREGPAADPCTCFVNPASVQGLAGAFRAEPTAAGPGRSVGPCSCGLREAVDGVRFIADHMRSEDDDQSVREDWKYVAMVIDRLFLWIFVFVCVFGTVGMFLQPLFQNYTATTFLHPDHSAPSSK
Positions of bridges follow the written chain, without caps; N, C: chain ends. Non-standard residues stand in square brackets, D forms with d. Residues, ends and D or L forms follow the SMILES beside them. Hyp = O=C(O)[C@@H]1C[C@@H](O)CN1

Qu. Tell us which IC50 value is on record for CC[C@H](C)[C@@H]1NC(=O)[C@H](Cc2c[nH]cn2)NC(=O)[C@@H]2CCCN2C(=O)[C@H](CC(N)=O)NC(=O)[C@H](CC(N)=O)NC(=O)[C@H](C(C)C)NC(=O)[C@H](CC(N)=O)NC(=O)[C@@H]2CSSC[C@H](NC(=O)CN)C(=O)N[C@@H](CSSC[C@@H](C(N)=O)NC1=O)C(=O)N[C@@H](CO)C(=O)N[C@@H](CCC(=O)O)C(=O)N1CCC[C@H]1C(=O)N[C@@H](C)C(=O)N2 [[H5E]RegIIA] (H-GCCSEPACNVNNPHIC-NH2; disulfide 2-8, 3-16)
Ans. > 10 µM

Qu. Tell us which IC50 value is on record for CC[C@H](C)[C@@H]1NC(=O)[C@H](Cc2c[nH]cn2)NC(=O)[C@@H]2CCCN2C(=O)[C@H](CC(N)=O)NC(=O)[C@H](CC(N)=O)NC(=O)[C@H](C(C)C)NC(=O)[C@H](CC(N)=O)NC(=O)[C@@H]2CSSC[C@H](NC(=O)CN)C(=O)N[C@@H](CSSC[C@@H](C(N)=O)NC1=O)C(=O)N[C@@H](CO)C(=O)N[C@@H](Cc1c[nH]cn1)C(=O)N1C[C@H](O)C[C@H]1C(=O)N[C@@H](C)C(=O)N2 [[P6O]RegIIA] (H-GCCSH[Hyp]ACNVNNPHIC-NH2; disulfide 2-8, 3-16)
Ans. > 10 µM

Qu. Tell us which IC50 value is on record for CC[C@H](C)[C@@H]1NC(=O)[C@H](Cc2c[nH]cn2)NC(=O)[C@@H]2CCCN2C(=O)[C@H](CC(N)=O)NC(=O)[C@H](CC(N)=O)NC(=O)[C@H](C(C)C)NC(=O)[C@H](CC(N)=O)NC(=O)[C@@H]2CSSC[C@H](NC(=O)CN)C(=O)N[C@@H](CSSC[C@@H](C(N)=O)NC1=O)C(=O)N[C@@H](C)C(=O)N[C@@H](Cc1c[nH]cn1)C(=O)N1CCC[C@H]1C(=O)N[C@@H](C)C(=O)N2 [[S4A]RegIIA] (H-GCCAHPACNVNNPHIC-NH2; disulfide 2-8, 3-16)
Ans. 0.034 µM

Qu. Tell us which IC50 value is on record for CC[C@H](C)[C@@H]1NC(=O)[C@H](Cc2c[nH]cn2)NC(=O)[C@@H]2CCCN2C(=O)[C@H](CC(N)=O)NC(=O)[C@H](CC(N)=O)NC(=O)[C@H](C(C)C)NC(=O)[C@H](CC(N)=O)NC(=O)[C@@H]2CSSC[C@H](NC(=O)CN)C(=O)N[C@@H](CSSC[C@@H](C(N)=O)NC1=O)C(=O)N[C@@H](CO)C(=O)N[C@@H](CO)C(=O)N1CCC[C@H]1C(=O)N[C@@H](C)C(=O)N2 [[H5S]RegIIA] (H-GCCSSPACNVNNPHIC-NH2; disulfide 2-8, 3-16)
Ans. > 10 µM

Qu. Tell us which IC50 value is on record for CC[C@H](C)[C@@H]1NC(=O)[C@H](Cc2cnc[nH]2)NC(=O)[C@@H]2CCCN2C(=O)[C@H](CC(N)=O)NC(=O)[C@H](CC(N)=O)NC(=O)[C@H](C(C)C)NC(=O)[C@H](CC(N)=O)NC(=O)[C@@H]2CSSC[C@H](NC(=O)CN)C(=O)N[C@@H](CSSC[C@@H](C(N)=O)NC1=O)C(=O)N[C@@H](CO)C(=O)N[C@@H](Cc1cnc[nH]1)C(=O)N1CCC[C@H]1C(=O)N[C@@H](C)C(=O)N2 [RegIIA, reference compound] (H-GCCSHPACNVNNPHIC-NH2; disulfide 2-8, 3-16)
Ans. 0.036 µM

Qu. Tell us which IC50 value is on record for CC[C@H](C)[C@@H]1NC(=O)[C@H](Cc2c[nH]cn2)NC(=O)[C@@H]2CCCN2C(=O)[C@H](CC(N)=O)NC(=O)[C@H](CC(N)=O)NC(=O)[C@H](C(C)C)NC(=O)[C@H](CC(N)=O)NC(=O)[C@@H]2CSSC[C@H](NC(=O)[C@H](C)N)C(=O)N[C@@H](CSSC[C@@H](C(N)=O)NC1=O)C(=O)N[C@@H](CO)C(=O)N[C@@H](Cc1c[nH]cn1)C(=O)N1CCC[C@H]1C(=O)N[C@@H](C)C(=O)N2 [[G1A]RegIIA] (H-ACCSHPACNVNNPHIC-NH2; disulfide 2-8, 3-16)
Ans. 0.09 µM

Qu. Tell us which IC50 value is on record for CC[C@H](C)[C@@H]1NC(=O)[C@H](Cc2c[nH]cn2)NC(=O)[C@@H]2CCCN2C(=O)[C@H](CC(N)=O)NC(=O)[C@H](CC(N)=O)NC(=O)[C@H](C(C)C)NC(=O)[C@H](CC(N)=O)NC(=O)[C@@H]2CSSC[C@H](NC(=O)CN)C(=O)N[C@@H](CSSC[C@@H](C(N)=O)NC1=O)C(=O)N[C@@H](CO)C(=O)N[C@@H](Cc1c[nH]cn1)C(=O)N[C@@H](C)C(=O)N[C@@H](C)C(=O)N2 [[P6A]RegIIA] (H-GCCSHAACNVNNPHIC-NH2; disulfide 2-8, 3-16)
Ans. > 10 µM

Qu. Tell us which IC50 value is on record for CC[C@H](C)[C@@H]1NC(=O)[C@H](Cc2c[nH]cn2)NC(=O)[C@@H]2CCCN2C(=O)[C@H](CC(N)=O)NC(=O)[C@H](CC(N)=O)NC(=O)[C@H](C(C)C)NC(=O)[C@H](CC(N)=O)NC(=O)[C@@H]2CSSC[C@H](NC(=O)CN)C(=O)N[C@@H](CSSC[C@@H](C(N)=O)NC1=O)C(=O)N[C@@H](CO)C(=O)N[C@@H](C)C(=O)N1CCC[C@H]1C(=O)N[C@@H](C)C(=O)N2 [[H5A]RegIIA] (H-GCCSAPACNVNNPHIC-NH2; disulfide 2-8, 3-16)
Ans. > 10 µM

Qu. Tell us which IC50 value is on record for CC[C@H](C)[C@@H]1NC(=O)[C@H](Cc2c[nH]cn2)NC(=O)[C@@H]2CCCN2C(=O)[C@H](CC(N)=O)NC(=O)[C@H](CC(N)=O)NC(=O)[C@H](C(C)C)NC(=O)[C@H](CC(N)=O)NC(=O)[C@@H]2CSSC[C@H](NC(=O)CN)C(=O)N[C@@H](CSSC[C@@H](C(N)=O)NC1=O)C(=O)N[C@@H](CO)C(=O)N[C@@H](C(C)C)C(=O)N1CCC[C@H]1C(=O)N[C@@H](C)C(=O)N2 [[H5V]RegIIA] (H-GCCSVPACNVNNPHIC-NH2; disulfide 2-8, 3-16)
Ans. > 10 µM

Qu. Tell us which IC50 value is on record for CC[C@H](C)[C@@H]1NC(=O)[C@H](Cc2c[nH]cn2)NC(=O)[C@@H]2CCCN2C(=O)[C@H](CC(N)=O)NC(=O)[C@H](CC(N)=O)NC(=O)[C@H](C(C)C)NC(=O)[C@H](CC(N)=O)NC(=O)[C@@H]2CSSC[C@H](NC(=O)CN)C(=O)N[C@@H](CSSC[C@@H](C(N)=O)NC1=O)C(=O)N[C@@H](CO)C(=O)N[C@@H](Cc1c[nH]cn1)C(=O)N1CCC[C@H]1C(=O)NCC(=O)N2 [[A7G]RegIIA] (H-GCCSHPGCNVNNPHIC-NH2; disulfide 2-8, 3-16)
Ans. > 10 µM
